# Assay target: T1, Drosophila Numb PTB domain (aa 65–203) (Drosophila, UniProt P16554-1 65-203)
# T1 chain: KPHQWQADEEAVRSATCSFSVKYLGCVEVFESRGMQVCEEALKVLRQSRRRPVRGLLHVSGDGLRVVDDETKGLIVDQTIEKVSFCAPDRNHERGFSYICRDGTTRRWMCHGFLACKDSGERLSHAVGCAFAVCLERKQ
# Procedure details: ITC
Quantity: pKd
pKd is a log-scale quantity: -log10 of the concentration expressed in molar.

Reference set (2 entries):
[[record]]
binder = "KKKKREHACFENPGLNLELPEKQFNPYEVVRSA [Pon A2B2 fragment]"
reported_measurement = 5.74

[[record]]
binder = "VRSATTPAKGFVNPALNLRGSDAPASLNPFEIHRPSEASEAACN [Pon A3B3 fragment]"
reported_measurement = 4.91


Consider the additional binder presented here.
(Q) Param item = QQKLPTNPFEVLRQPPKKKKREHACFENPGLNLE [Pon B1A2 fragment] ; retrieve measured pKd.
(A) 5.06

From: paper PMC5821850
